# Assay System: T1, murine CD300A-Fc (mouse)
# T1 construct: hIgG1-Fc fusion; the entry is the whole fusion chain; also called mCD300A; Mouse CD300A-Fc
# T1 sequence (chain, as listed by the source limits assumed): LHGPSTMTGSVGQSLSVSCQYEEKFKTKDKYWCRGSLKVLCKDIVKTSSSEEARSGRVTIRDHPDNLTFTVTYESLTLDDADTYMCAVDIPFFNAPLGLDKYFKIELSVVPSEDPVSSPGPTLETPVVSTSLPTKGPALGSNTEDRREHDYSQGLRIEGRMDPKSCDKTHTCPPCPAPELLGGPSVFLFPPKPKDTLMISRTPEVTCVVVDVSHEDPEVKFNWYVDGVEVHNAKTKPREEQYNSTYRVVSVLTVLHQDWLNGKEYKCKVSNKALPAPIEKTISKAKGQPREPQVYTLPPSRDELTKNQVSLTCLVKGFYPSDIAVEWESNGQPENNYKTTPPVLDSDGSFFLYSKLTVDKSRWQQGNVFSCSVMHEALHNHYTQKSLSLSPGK
# Measurement Notes: SPR (Carterra LSA), antibody immobilised, Fc fusion at 300 or 600 nM
Readout Type: SPR binding (control subtracted)
Number only, please.

Below, 2 binders whose answers are already recorded.
anti-CD300LB antibody CD-11 (antibody, V domains shown) VH: QIQLVQSGPEVKKPGETVKISCKASGYTLTDYSMHWVMQTPGTGLKWMAWMNTETGEPTYADDFKGRFAFSLETSAGTAYLQIDNLKNEDTATYFCATYGKSYGMKYWGQGTSVTVSS VL: DIVLTQSPPSLAVSLGQRATISCRATKSVSPYLHWYQQTPGQPPKLLIYLASNLDSGVPARFSGSGSGTDFTLNIHPVEEEDAATYYCQHNKELPPTFGGGTRLEIK | -2.1
anti-CD300LB antibody CD-16 (antibody, V domains shown) VH: QIQLVQSGPELKKPGETVKISCKASGYTFTDYSMHWVKQAPGKGLKWMAWINTETGEPTYADDFRGRFAFSLETSGRTAYLEINNLRNEDTATYFCVTYGSSYGMAYWGQGTSVTVSS VL: DIVLTQSPASLAVSLGQRATISCRASKSVSRSGYSYLHWYQQKPGQPPKLLIYLASKLESGVPARFSGSGSGTDFTLNIHPVEAEDAATYYCQHNREIPPTFGGGTKLEIK | -1.9

In: For anti-CD300LB antibody CD-14 (antibody, V domains shown) VH: QIQLVQSGPELKKPGETVKISCKASGYTFTDYSLHWVKQTPEKNLKWMAWINTETGAPTYADDFKGRFAFSLETSSNTAYLLINNLKNEDTATYFCALTMVNYWGQGTTLTVSS VL: DIVMTQSQKFMSTSVGDRVSVTCKASQNVGIRVAWHQQKPGQSPKTLIYSTSYRYSGVPDRFTGSGSGTEFILTISNVQSEDLAEYFCQQYNSYPYTFGGGTKLEIK , what is its reported SPR binding (control subtracted)?
Out: 2.7
